Assay System: Ribosomal protein S6 kinase alpha-2 (Homo sapiens);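 further: reported value is the mean percent inhibition of RSK3, from the GSK PKIS screening panel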
Applied Conditions: at 0.1 µM
Consider the following compounds and their measured inhibition readings.
Use % as the unit, but write only the number.

Completed entries (count: 3):
Structure Smiles: CN(c1ccc(NC(=O)NCCN2CCOCC2)cc1)c1ccnc(Nc2ccc(CS(C)(=O)=O)cc2)n1
inhibition (%): 1.38

Structure Smiles: COC(=O)Nc1nc2cc(Oc3ccc(NC(=O)Nc4ccccc4)cc3)ccc2[nH]1
inhibition (%): 1.67

Structure Smiles: CNC(=O)c1cncc(/C=C/c2ccccc2C)c1
inhibition (%): 0.87

Lab note: c1ccc(-c2n[nH]cc2-c2ccnc(-c3ccc(OCCn4ccnc4)cc3)c2)nc1 gave inhibition of 1.32

====

Assay System: SRSF protein kinase 1 (Homo sapiens) (UniProt Q96SB4);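 further: values are mean percent inhibition of SRPK1 kinase, measured in the GSK PKIS screening panel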
Sequence (Q96SB4 whole entry): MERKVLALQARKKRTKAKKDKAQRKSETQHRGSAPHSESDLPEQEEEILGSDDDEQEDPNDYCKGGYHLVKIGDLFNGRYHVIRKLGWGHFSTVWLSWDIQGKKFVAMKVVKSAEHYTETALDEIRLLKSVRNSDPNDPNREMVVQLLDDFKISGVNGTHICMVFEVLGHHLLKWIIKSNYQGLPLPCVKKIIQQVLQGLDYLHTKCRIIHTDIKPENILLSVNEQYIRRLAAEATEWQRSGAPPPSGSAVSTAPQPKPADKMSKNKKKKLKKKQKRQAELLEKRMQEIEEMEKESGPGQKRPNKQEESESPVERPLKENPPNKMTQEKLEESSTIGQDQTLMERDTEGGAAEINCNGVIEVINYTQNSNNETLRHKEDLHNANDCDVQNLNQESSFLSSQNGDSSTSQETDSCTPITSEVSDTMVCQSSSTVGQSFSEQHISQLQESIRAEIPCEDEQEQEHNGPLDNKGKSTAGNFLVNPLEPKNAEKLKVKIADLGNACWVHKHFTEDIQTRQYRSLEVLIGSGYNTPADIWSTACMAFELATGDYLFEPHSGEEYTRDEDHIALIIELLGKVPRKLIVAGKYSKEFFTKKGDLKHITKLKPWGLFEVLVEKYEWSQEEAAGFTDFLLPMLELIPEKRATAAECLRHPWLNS
Applied Conditions: at 0.1 µM
Consider the following molecules and their measured inhibition readings.
Use % as the unit, but write only the number.

Completed entries (count: 4):
Structure Smiles: CC(C)c1ccc(-c2cc(-c3c[nH]nc3-c3ccccn3)ccn2)cc1
inhibition / %: -1.6

Structure Smiles: Cc1ccc(-c2cc3c(NC(=O)C4CC4)ncnc3o2)cc1
inhibition / %: -2.33

Structure Smiles: c1cnn2ncc(-c3ccnc(NCCCN4CCOCC4)n3)c2c1
inhibition / %: -1.76

Structure Smiles: CCN1CCC(C(=O)Nc2n[nH]c3nnc(-c4cccc(F)c4F)cc23)CC1
inhibition / %: -1.43

Lab note: CNC(=O)c1cncc(/C=C/c2ccccc2C)c1 gave inhibition of -0.49

Lab note: CS(=O)(=O)CCNCc1ccc(-c2ccc3ncnc(Nc4ccc(OCc5ccccc5)cc4)c3c2)o1 gave inhibition of -2.16

Lab note: COc1ccc(-c2nn3ncccc3c2-c2ccnc(Nc3ccc(F)c(F)c3)n2)cc1 gave inhibition of -0.49

Lab note: OCCCNc1nccc(-c2c(-c3ccc(F)cc3)nn3cc(C(F)(F)F)ccc23)n1 gave inhibition of -1.12

Lab note: N#Cc1cccc(Nc2ncc(-c3ccccc3)o2)c1 gave inhibition of -1.82

Lab note: O=C(O[C@H]1CN[C@H](C#Cc2cc3ncnc(Nc4ccc5c(ccn5Cc5cc(F)ccc5F)c4)c3s2)C1)N1CCOCC1 gave inhibition of -2.77

Lab note: NS(=O)(=O)c1ccc(N/N=C2\C(=O)Nc3cccc(CCc4ccncc4)c32)cc1 gave inhibition of -0.62

Lab note: c1ccc(-c2n[nH]cc2-c2ccnc(-c3ccc(OCCn4ccnc4)cc3)c2)nc1 gave inhibition of 0.42

====

Assay System: Serine/threonine-protein kinase D3 (Homo sapiens) (UniProt O94806);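 further: values are mean inhibition figures against PRKD3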
Sequence (O94806 whole entry): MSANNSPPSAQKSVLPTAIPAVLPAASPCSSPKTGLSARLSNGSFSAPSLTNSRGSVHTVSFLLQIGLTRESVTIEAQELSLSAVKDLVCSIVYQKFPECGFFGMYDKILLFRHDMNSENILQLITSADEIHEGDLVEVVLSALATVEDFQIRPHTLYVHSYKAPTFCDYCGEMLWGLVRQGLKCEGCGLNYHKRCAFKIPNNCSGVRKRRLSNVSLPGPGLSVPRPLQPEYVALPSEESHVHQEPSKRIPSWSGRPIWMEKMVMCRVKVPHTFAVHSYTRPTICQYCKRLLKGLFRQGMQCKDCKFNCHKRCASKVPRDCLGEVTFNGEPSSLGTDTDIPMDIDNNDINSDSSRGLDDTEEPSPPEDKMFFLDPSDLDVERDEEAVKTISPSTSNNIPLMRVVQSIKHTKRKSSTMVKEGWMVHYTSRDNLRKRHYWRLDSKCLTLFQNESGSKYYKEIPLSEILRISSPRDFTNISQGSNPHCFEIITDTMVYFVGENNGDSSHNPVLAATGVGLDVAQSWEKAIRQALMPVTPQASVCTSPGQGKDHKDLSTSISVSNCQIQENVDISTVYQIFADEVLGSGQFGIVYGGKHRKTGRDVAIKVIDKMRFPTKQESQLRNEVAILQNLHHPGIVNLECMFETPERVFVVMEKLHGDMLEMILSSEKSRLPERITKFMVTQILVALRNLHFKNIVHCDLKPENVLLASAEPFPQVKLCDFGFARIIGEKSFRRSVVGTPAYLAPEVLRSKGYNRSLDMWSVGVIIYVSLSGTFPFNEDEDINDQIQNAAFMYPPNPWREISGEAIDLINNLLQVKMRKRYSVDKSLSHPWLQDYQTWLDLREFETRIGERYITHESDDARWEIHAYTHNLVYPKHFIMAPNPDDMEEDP
Applied Conditions: at 1 µM
Consider the following molecules and their measured inhibition readings.
Use % as the unit, but write only the number.

Completed entries (count: 2):
Structure Smiles: NS(=O)(=O)c1ccc(N/N=C2\C(=O)Nc3cccc(CCc4ccncc4)c32)cc1
Recorded Value: 0.91

Structure Smiles: CCn1c(-c2nonc2N)nc2cncc(C(=O)NCCNC)c21
Recorded Value: 6.85

Lab note: CS(=O)(=O)Nc1ccc(-c2cc(-c3ccccc3)cc(C(N)=O)c2N)cc1 gave inhibition of 2.57

====

Assay System: Glycogen synthase kinase-3 beta (Homo sapiens) (UniProt P49841);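 further: reported values are mean percent inhibition of GSK3B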
Sequence (P49841 whole entry, looked up): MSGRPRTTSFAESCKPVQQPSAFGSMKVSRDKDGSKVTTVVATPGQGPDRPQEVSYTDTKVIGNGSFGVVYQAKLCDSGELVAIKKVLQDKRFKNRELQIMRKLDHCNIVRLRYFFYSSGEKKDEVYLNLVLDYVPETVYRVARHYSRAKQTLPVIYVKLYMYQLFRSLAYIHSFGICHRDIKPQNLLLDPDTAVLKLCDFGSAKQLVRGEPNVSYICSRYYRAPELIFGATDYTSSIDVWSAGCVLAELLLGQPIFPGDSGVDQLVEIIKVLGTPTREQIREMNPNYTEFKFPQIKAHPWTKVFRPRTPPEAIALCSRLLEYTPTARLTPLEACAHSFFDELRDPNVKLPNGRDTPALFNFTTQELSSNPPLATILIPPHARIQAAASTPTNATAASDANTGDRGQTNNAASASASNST
Applied Conditions: at 1 µM
// false (0) strictly below 5% in inhibition; true (1) otherwise

Compound: CC(C)c1ccc(-c2cc(-c3c[nH]nc3-c3ccccn3)ccn2)cc1
Assigned Category: false (0)

Q: Check the entry CS(=O)(=O)CCNCc1ccc(-c2ccc3ncnc(Nc4ccc(OCc5ccccc5)cc4)c3c2)o1 : does inhibition equal or exceed 5%?
Ans: false (0)

Q: Check the entry NC(=O)c1ccc2c(-c3ccnc(NCCCO)n3)c(-c3ccc(F)cc3)nn2c1 : does inhibition equal or exceed 5%?
Ans: true (1)

Q: Check the entry CS(=O)(=O)Nc1ccc(-c2cc(-c3ccccc3)cc(C(N)=O)c2N)cc1 : does inhibition equal or exceed 5%?
Ans: false (0)

Q: Check the entry CCS(=O)(=O)c1ccc(OC)c(Nc2ncc(-c3cccc(C(C)=O)c3)o2)c1 : does inhibition equal or exceed 5%?
Ans: true (1)

Q: Check the entry COc1cc2c(cc1Nc1nc(Nc3cccc(F)c3C(N)=O)c3cc[nH]c3n1)N(C(=O)CN1CCN(C(C)C)CC1)CC2 : does inhibition equal or exceed 5%?
Ans: false (0)

Q: Check the entry c1cnn2ncc(-c3ccnc(NCCCN4CCOCC4)n3)c2c1 : does inhibition equal or exceed 5%?
Ans: true (1)

Q: Check the entry N#Cc1cccc(Nc2ncc(-c3ccccc3)o2)c1 : does inhibition equal or exceed 5%?
Ans: true (1)

Q: Check the entry COc1cc(N2CCN(C(C)C)CC2)ccc1Nc1nc(Nc2cccc(F)c2C(=O)O)c2cc[nH]c2n1 : does inhibition equal or exceed 5%?
Ans: true (1)

Q: Check the entry O=C(O[C@H]1CN[C@H](C#Cc2cc3ncnc(Nc4ccc(OCc5cccc(F)c5)c(Cl)c4)c3s2)C1)N1CCOCC1 : does inhibition equal or exceed 5%?
Ans: false (0)

====

Assay System: Dual specificity protein kinase TTK (Homo sapiens);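 further: reported figures are mean TTK inhibition at 1 µM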
Sequence (whole entry): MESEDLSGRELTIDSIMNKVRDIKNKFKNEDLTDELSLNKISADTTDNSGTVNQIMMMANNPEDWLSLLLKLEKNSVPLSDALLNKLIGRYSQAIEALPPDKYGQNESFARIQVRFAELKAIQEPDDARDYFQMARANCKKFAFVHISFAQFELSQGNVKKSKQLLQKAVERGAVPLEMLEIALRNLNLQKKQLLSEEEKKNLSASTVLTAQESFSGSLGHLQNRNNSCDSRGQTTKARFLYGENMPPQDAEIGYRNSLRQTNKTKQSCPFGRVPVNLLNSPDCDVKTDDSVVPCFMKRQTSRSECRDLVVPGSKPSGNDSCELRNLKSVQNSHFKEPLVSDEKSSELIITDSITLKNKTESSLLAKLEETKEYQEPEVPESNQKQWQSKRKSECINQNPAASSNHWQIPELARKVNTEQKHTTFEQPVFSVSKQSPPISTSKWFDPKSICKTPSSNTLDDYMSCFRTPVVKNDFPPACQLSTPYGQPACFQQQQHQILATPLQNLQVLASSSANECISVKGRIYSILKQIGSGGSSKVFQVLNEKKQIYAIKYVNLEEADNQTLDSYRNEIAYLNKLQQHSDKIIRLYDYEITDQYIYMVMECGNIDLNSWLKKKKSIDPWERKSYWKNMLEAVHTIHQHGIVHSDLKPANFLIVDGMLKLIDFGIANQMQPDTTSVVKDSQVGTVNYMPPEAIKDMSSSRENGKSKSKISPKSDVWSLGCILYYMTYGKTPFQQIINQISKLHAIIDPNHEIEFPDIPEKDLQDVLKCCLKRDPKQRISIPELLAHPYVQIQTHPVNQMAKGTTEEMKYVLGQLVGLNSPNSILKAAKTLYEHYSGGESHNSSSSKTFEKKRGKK
Applied Conditions: at 1 µM
// 0 strictly below 10% in inhibition; 1 otherwise

Molecule: O=C1Nc2ccccc2/C1=C1\CCc2cc(O)ccc21
Assigned Category: 1
//
Molecule: NS(=O)(=O)c1ccc(N/N=C2\C(=O)Nc3cccc(CCc4ccncc4)c32)cc1
Assigned Category: 1
//
Molecule: COc1cc(Nc2ncc(-c3ccccc3)o2)cc(OC)c1
Assigned Category: 1
//
Molecule: CC1=C(C(=O)Nc2ccc3[nH]nc(C)c3c2)C(c2ccc(C(F)(F)F)cc2)CC(=O)N1 (stereo unspecified)
Assigned Category: 0
//
Molecule: O=C(O[C@H]1CN[C@H](C#Cc2cc3ncnc(Nc4ccc5c(ccn5Cc5cc(F)ccc5F)c4)c3s2)C1)N1CCOCC1
Assigned Category: 0
//
Molecule: COc1ccc2ncn(-c3cc(O[C@H](C)c4ccccc4C(F)(F)F)c(C(N)=O)s3)c2c1
Assigned Category: 0
//
Molecule: CC1(C)CC(n2cnc(-c3ccc(F)cc3)c2-c2ccnc(N)n2)CC(C)(C)N1
Assigned Category: 0
//
Molecule: CS(=O)(=O)Nc1ccc(-c2ccc3c(NC(=O)C4CC4)n[nH]c3c2)cc1
Assigned Category: 1
//
Molecule: CC1=C(C(=O)Nc2ccc3[nH]ncc3c2)C(c2ccc(F)cc2)N=C(c2ccc(C(F)(F)F)nc2)N1 (stereo unspecified)
Assigned Category: 0
//
Molecule: CCS(=O)(=O)c1ccc(OC)c(Nc2ncc(-c3cccc(F)c3)o2)c1
Assigned Category: 0

Now look at this entry.
Q: Check the entry COc1ccc(-c2nn3ncccc3c2-c2ccnc(Nc3ccc(F)c(F)c3)n2)cc1 : does inhibition equal or exceed 10%?
Ans: 0

====

Assay System: G protein-coupled receptor kinase 6 (Homo sapiens) (UniProt P43250);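 further: mean percent inhibition of GRK6, GSK PKIS screen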
Sequence (P43250 whole entry, looked up): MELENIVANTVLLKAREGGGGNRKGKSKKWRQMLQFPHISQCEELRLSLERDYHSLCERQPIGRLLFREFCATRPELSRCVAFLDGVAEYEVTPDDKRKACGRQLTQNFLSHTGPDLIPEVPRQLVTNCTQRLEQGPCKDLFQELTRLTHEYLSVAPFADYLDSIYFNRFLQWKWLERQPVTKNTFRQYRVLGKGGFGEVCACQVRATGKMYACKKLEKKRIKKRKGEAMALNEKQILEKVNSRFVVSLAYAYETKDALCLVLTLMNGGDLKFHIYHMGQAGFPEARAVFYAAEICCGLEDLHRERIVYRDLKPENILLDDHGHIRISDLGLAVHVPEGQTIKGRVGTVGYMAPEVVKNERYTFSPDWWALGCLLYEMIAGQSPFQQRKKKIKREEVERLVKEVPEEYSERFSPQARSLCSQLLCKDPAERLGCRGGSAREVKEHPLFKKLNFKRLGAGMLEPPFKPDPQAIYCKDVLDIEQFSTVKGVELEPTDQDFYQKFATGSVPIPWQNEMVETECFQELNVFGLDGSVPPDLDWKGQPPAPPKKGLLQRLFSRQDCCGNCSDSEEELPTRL
Applied Conditions: at 0.1 µM
// criterion not met strictly below 4% in inhibition; criterion met otherwise

Here's what some known entries look like.
Structure Smiles: CN(c1ccc(NC(=O)NCCN2CCOCC2)cc1)c1ccnc(Nc2ccc(CS(C)(=O)=O)cc2)n1
Assigned Category: criterion met
--
Structure Smiles: NS(=O)(=O)c1ccc(N/N=C2\C(=O)Nc3ccc(C(=O)NCc4ccncc4)cc32)cc1
Assigned Category: criterion met
--
Structure Smiles: COc1ccccc1-c1cc(/C=C2\C(=O)Nc3ncc(Br)cc32)cc(Br)c1O
Assigned Category: criterion met

Q: Check the entry Cc1nnc(-c2cccc(-c3ccc(C(=O)NCC4CC4)cc3)c2)o1 : does inhibition equal or exceed 4%?
Ans: criterion not met

Q: Check the entry COc1c(C(N)=O)cc(-c2ccc(Cl)cc2)cc1-c1ccc(S(N)(=O)=O)cc1 : does inhibition equal or exceed 4%?
Ans: criterion met
